Tested on: NIH3T3
Measurement protocol: Antiproliferative activity against mouse NIH3T3 cells harboring EGFR del19/T790M/C797S assessed as reduction in cell growth measured for 4 to 7 days by CellTiter-Glo Luminescent assay
Format: functional, cell-based
pIC50: −log10 of the molar value.
Outcome measure: pIC50

Query smiles: C=CC(=O)Nc1cc(Nc2nccc(-c3cn(C)c4ccccc34)n2)c(OC)cc1N(C)CCN(C)C
Reported result: 5.92
--
Query smiles: CC(C)n1c2cc(Nc3ccnc(-c4cnn(S(=O)(=O)C5CC5)c4)n3)ncc2c2c(OCC(F)(F)F)cc(N3CCN(C)CC3)cc21
Reported result: 7.70

---

# IC50 per record follows
Test target: Epidermal growth factor receptor (Homo sapiens, UniProt P00533)
Sequence (P00533 whole entry): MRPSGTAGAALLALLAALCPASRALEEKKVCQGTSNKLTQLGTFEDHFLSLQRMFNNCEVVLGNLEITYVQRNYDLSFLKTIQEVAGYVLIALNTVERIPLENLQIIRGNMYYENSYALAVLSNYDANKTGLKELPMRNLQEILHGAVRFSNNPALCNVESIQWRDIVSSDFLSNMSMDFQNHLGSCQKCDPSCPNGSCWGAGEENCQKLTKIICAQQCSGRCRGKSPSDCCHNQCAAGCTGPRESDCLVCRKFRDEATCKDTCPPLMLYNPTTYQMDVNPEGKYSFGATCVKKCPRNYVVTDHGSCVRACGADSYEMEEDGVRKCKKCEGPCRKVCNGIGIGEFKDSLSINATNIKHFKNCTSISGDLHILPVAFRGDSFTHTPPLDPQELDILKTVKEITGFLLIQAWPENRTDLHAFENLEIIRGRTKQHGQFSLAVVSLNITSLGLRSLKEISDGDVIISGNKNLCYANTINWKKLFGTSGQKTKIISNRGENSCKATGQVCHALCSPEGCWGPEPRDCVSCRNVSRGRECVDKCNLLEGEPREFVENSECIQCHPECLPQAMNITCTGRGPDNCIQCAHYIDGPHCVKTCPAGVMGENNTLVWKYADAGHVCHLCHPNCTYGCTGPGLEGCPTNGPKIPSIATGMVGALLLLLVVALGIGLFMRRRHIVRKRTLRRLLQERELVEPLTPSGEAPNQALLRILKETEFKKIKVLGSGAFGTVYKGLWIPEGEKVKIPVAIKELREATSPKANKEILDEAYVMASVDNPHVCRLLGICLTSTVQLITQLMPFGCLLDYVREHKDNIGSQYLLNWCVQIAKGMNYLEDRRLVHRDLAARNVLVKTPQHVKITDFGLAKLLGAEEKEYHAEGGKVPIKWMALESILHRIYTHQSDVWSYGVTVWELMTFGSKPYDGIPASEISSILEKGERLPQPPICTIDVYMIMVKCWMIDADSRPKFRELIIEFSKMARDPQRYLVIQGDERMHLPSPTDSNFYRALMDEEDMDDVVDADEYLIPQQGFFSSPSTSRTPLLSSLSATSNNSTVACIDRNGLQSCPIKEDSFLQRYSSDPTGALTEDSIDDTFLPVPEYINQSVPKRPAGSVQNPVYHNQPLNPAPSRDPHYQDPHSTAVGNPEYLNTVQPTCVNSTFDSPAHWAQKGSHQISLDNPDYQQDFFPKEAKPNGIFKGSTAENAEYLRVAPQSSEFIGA
Measurement protocol: Inhibition of wild type EGFR (unknown origin)

Molecule: N#Cc1ccc(O)c(-c2nc(NCc3cccnc3)c3ccccc3n2)c1
Unit abbreviation: nM
Modifier: >
IC50: 50
--
Molecule: COc1cc(N2CCC(N3CCN(C)CC3)CC2)ccc1Nc1ncc(Cl)c(Nc2ccccc2NS(C)(=O)=O)n1
Unit abbreviation: nM
Modifier: =
IC50: 184
--
Molecule: C=CC(=O)C1CCC[C@@H](n2nc(-c3ccc4ccccc4c3)c3c(N)ncnc32)C1 (some centres undefined)
Unit abbreviation: nM
Modifier: =
IC50: 16
--
Molecule: CC(C)n1c2cc(Nc3ccnc(-c4cnn(S(=O)(=O)C5CC5)c4)n3)ncc2c2c(OCC(F)(F)F)cc(N3CCN(C)CC3)cc21
Unit abbreviation: nM
Modifier: =
IC50: 0.92

---

System: A549
Measurement protocol: Antiproliferative activity against human A549 cells
Assay type: functional, cell-based

Query smiles: [2H]C([2H])([2H])c1cc(Nc2ncc(Br)c(Nc3ccccc3NS(=O)(=O)C3CC3)n2)ccc1N1CCN(C([2H])([2H])[2H])CC1
IC50, nM: 957

---

Test target: Epidermal growth factor receptor (Homo sapiens, UniProt P00533, C797S/L858R/T790M)
Sequence (P00533 25-1210 T790M/C797S/L858R limits assumed): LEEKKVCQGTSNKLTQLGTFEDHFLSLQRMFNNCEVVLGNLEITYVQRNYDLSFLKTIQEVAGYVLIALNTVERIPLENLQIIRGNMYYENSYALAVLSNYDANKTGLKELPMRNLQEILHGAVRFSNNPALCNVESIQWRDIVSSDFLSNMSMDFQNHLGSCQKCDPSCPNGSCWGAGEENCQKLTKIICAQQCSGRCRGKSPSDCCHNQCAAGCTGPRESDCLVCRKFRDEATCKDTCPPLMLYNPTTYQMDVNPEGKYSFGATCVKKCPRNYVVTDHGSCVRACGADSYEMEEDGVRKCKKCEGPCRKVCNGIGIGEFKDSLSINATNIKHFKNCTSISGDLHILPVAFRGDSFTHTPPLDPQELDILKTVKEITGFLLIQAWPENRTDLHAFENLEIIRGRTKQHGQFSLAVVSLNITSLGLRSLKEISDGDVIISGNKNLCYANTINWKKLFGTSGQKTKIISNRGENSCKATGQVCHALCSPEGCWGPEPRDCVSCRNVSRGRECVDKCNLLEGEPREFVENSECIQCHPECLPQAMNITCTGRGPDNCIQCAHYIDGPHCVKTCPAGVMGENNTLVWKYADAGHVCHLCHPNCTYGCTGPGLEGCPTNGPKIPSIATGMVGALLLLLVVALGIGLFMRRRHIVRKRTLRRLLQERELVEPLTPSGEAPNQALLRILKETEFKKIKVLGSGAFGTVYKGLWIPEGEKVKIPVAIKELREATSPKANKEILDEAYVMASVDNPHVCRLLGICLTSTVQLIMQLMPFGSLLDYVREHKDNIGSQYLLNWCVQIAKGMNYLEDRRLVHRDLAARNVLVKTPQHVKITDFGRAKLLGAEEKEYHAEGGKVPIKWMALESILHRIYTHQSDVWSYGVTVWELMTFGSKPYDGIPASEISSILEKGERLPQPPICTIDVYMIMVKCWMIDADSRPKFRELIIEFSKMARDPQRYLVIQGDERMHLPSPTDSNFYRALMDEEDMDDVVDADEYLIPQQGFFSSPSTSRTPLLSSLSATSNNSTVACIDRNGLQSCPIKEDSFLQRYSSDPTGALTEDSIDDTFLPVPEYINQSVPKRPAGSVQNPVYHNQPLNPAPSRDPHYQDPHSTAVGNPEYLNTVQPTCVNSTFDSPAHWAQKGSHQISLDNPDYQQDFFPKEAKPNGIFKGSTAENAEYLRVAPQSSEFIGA
Measurement protocol: Inhibition of EGFR L858R/T790M/C797S triple mutant (unknown origin)
pIC50: −log10 of the molar value.
# pIC50 per record follows
Outcome measure: pIC50

Compound: C=CC(=O)C1CCC[C@@H](n2nc(-c3ccc4ccccc4c3)c3c(N)ncnc32)C1 (stereo partly drawn)
Outcome measure: pIC50
Reported result: 7.06

Compound: CN1CCC(c2ccc(-c3ccc4c(c3)C(=O)N(C(C(=O)Nc3nccs3)c3cc(F)ccc3O)C4)cc2)CC1 (stereo not drawn)
Outcome measure: pIC50
Reported result: 10.08

Compound: COc1cc(N2CCC(N3CCN(C)CC3)CC2)ccc1Nc1ncc(Cl)c(Nc2ccccc2NS(C)(=O)=O)n1
Outcome measure: pIC50
Reported result: 8.10

---

Test target: Epidermal growth factor receptor (Homo sapiens, UniProt P00533, L858R/T790M)
Sequence (P00533 25-1210 T790M/L858R limits assumed): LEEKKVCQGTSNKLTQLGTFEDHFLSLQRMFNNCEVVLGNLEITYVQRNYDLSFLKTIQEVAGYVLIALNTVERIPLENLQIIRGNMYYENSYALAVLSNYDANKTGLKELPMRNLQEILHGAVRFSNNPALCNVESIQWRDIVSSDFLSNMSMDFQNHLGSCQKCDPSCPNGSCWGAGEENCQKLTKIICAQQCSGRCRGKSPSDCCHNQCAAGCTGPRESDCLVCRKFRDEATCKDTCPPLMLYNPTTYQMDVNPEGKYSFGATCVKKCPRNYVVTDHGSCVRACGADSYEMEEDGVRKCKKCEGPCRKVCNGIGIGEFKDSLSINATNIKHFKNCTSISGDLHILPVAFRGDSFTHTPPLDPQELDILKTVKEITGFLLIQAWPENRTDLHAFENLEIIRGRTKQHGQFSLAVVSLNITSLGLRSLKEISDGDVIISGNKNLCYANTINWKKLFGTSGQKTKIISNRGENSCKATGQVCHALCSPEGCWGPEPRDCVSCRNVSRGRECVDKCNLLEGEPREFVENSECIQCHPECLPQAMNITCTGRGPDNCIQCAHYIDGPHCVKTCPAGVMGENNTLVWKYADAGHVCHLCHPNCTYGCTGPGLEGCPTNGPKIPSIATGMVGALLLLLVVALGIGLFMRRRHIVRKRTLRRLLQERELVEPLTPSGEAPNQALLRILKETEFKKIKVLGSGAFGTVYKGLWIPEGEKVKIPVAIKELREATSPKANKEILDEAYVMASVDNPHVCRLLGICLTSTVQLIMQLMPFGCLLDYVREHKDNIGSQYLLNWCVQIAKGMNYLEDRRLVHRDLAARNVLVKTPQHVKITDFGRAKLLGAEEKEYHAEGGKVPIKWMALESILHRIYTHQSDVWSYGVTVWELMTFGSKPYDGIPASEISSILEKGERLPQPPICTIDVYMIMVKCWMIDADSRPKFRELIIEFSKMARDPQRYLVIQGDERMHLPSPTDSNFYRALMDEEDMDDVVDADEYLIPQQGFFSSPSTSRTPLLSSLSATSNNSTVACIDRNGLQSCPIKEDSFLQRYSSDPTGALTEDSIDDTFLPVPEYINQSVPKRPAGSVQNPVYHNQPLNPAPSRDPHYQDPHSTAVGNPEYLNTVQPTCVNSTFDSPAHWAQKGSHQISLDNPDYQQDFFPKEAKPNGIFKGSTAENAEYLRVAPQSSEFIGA
Measurement protocol: Inhibition of EGFR L858R/T790M double mutant (unknown origin)

Compound: CN1CCC(c2ccc(-c3ccc4c(c3)C(=O)N(C(C(=O)Nc3nccs3)c3cc(F)ccc3O)C4)cc2)CC1 (stereo unspecified)
Test target: Epidermal growth factor receptor (Homo sapiens, UniProt P00533, L858R/T790M)
IC50 [nM]: 0.063

---

Test target: Epidermal growth factor receptor (Homo sapiens)
Measurement protocol: Inhibition of wild type EGFR (unknown origin) by HTRF assay
Outcome measure: IC50 (nM)

Query smiles: CCC(=O)Nc1cccc(-c2c(-c3ccc(N4CCN(C)CC4)cc3)[nH]c3ncnc(OCC(C)C)c23)c1
Reported result: 0.4
